Test system: E. coli TESEC Mtb DapB
assay.method.text: growth (OD600 after 10 h); higher = more growth (less inhibition)
experimental.setup: arabinose induction (level): High; compound 0.1 mM; raw OD600 reference: median of DMSO wells […], cell-free background 0.041
Counter-ions that a name gives are not always drawn.
quantity.measured: growth

As a guide, the following entries are already answered.
{"compound": "c1ccc(C2CN3CCSC3=N2)cc1 (stereo not given) [Tetramisole hydrochloride]", "experimental.value": 0.203}
{"compound": "COC1=C(OC)C(=O)C(CCCCCCCCCCO)=C(C)C1=O", "experimental.value": 0.0884}

growth reading for COc1cc2nc(N(C)CCCNC(=O)C3CCCO3)nc(N)c2cc1OC (stereo not given) [Alfuzosin hydrochloride] : 0.217

For this compound ( CCCCCCNC(=O)n1cc(F)c(=O)[nH]c1=O ), measured growth is 0.179

The recorded growth for entry CCCCC[C@H](O)/C=C/[C@H]1[C@H](O)CC(=O)[C@@H]1CCCCCCC(=O)O equals 0.154

###

Test system: E. coli TESEC Mtb Alr
assay.method.text: growth (OD600 after 10 h); higher = more growth (less inhibition)
experimental.setup: arabinose 100000 nM; compound 0.1 mM; raw OD600 reference: median of DMSO wells 0.201, cell-free background 0.041
Structures can show the parent of a compound that is named as a salt.
quantity.measured: growth

// solved cases for growth follow
{"compound": "CN1CCOC(c2ccccc2)c2ccccc2C1 (centres undefined) [Nefopam hydrochloride]", "quantity.measured": "growth", "experimental.value": 0.185}
{"compound": "CC1CNc2c(cccc2S(=O)(=O)N[C@@H](CCCNC(=N)N)C(=O)N2CC[C@@H](C)C[C@@H]2C(=O)O)C1 (some centres undefined) [Argatroban]", "quantity.measured": "growth", "experimental.value": 0.222}
{"compound": "O=C(NC(Cc1cc(=O)[nH]c2ccccc12)C(=O)O)c1ccc(Cl)cc1 (centres undefined) [Rebamipide]", "quantity.measured": "growth", "experimental.value": 0.211}
{"compound": "O=C1c2cccc3c2[C@H](CCC3)CN1[C@@H]1CN2CCC1CC2 [Palonosetron hydrochloride]", "quantity.measured": "growth", "experimental.value": 0.177}
{"compound": "C#CCN(C)Cc1ccccc1 [Pargyline hydrochloride]", "quantity.measured": "growth", "experimental.value": 0.206}

The recorded growth with E. coli TESEC Mtb Alr for CN1Cc2c(N)cccc2C(c2ccccc2)C1 (centres undefined) [Nomifensine maleate] was 0.19

GET /values?item= CCN1CCC[C@H]1CNC(=O)c1c(OC)ccc(Br)c1OC [Remoxipride Hydrochloride] &system= E. coli TESEC Mtb Alr returns growth: 0.192

Known value: E. coli TESEC Mtb Alr growth of the compound Cc1onc(-c2ccccc2Cl)c1C(=O)N[C@@H]1C(=O)N2[C@@H]1SC(C)(C)[C@@H]2C(=O)O [Cloxacillin sodium salt] equals 0.217

Kindly note: E. coli TESEC Mtb Alr, CCN(CC)CCNc1ccc(CO)c2sc3ccccc3c(=O)c12 [Hycanthone] , growth value reported: 0.1

###

Tested on: E. coli TESEC Alr+ wild-type control
assay.method.text: growth (OD600 after 10 h); higher = more growth (less inhibition)
experimental.setup: compound 0.1 mM; raw OD600 reference: median of DMSO wells 0.49, cell-free background 0.052
Counter-ions that a name gives are not always drawn.
Binning rule for recorded growth: Low = under 0.4, Mid = from 0.4 up to 0.5, High = 0.5 and over

Consider the worked cases shown below.
{"molecule": "CCCCN(CCCC)CCCOC(=O)c1ccc(N)cc1", "target.under.test": "E. coli TESEC Alr+ wild-type control", "qualitative.label": "Mid"}
{"molecule": "C[C@@H]1[C@H](O)[C@@H](C)/C=C/C=C/C=C/C=C/C=C/C=C/C=C/[C@H](O[C@@H]2O[C@H](C)[C@@H](O)[C@H](N)[C@@H]2O)C[C@@H]2O[C@](O)(C[C@@H](O)C[C@@H](O)[C@H](O)CC[C@@H](O)C[C@@H](O)CC(=O)O[C@H]1C)C[C@H](O)[C@H]2C(=O)O", "target.under.test": "E. coli TESEC Alr+ wild-type control", "qualitative.label": "High"}
{"molecule": "CC(C[N+](C)(C)C)OC(N)=O (stereo not given) [Bethanechol chloride]", "target.under.test": "E. coli TESEC Alr+ wild-type control", "qualitative.label": "High"}
{"molecule": "CCOc1ccc2c(c1)C(C)=CC(C)(C)N2", "target.under.test": "E. coli TESEC Alr+ wild-type control", "qualitative.label": "Low"}

Exercise: Kindly identify the class of CC1(C)S[C@@H]2[C@H](NC(=O)[C@H](NC(=O)N3CCNC3=O)c3ccccc3)C(=O)N2[C@H]1C(=O)O [Azlocillin sodium salt] .
Key: High

Exercise: Hi, small favor: classify CC(C)OC(=O)CCC/C=C\C[C@@H]1[C@@H](CC[C@@H](O)CCc2ccccc2)[C@H](O)C[C@@H]1O by its growth when you get a moment.
Key: Low

Exercise: Class? Entry: COc1ccc(CCN(C)CCCC(C#N)(c2ccc(OC)c(OC)c2)C(C)C)cc1OC (stereo not given) [Verapamil hydrochloride]
Key: Mid

Exercise: # bin label for O=C(c1ccc(OCCN2CCCCC2)cc1)c1c(-c2ccc(O)cc2)sc2cc(O)ccc12 [Raloxifene hydrochloride]
Key: Low
